// data source = patent EP4670717A1

target: IDO1 (Homo sapiens, UniProt P14902); construct: BxPC3 cells were seeded in phenol red-free RPMI 1640 medium; endogenous in cells; host or cells: BxPC3 cells stimulated with IFN-γ (50 ng/mL); test: Kyn assay in BxPC-3 cells (Kyn levels after IFN-γ and Trp); type: cell-based; details: read-out: IC50 value in the Kyn assay; Kyn assay;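 also: kyn levels expressed relative to DMSO-treated control cells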
Sequence (P14902 whole entry): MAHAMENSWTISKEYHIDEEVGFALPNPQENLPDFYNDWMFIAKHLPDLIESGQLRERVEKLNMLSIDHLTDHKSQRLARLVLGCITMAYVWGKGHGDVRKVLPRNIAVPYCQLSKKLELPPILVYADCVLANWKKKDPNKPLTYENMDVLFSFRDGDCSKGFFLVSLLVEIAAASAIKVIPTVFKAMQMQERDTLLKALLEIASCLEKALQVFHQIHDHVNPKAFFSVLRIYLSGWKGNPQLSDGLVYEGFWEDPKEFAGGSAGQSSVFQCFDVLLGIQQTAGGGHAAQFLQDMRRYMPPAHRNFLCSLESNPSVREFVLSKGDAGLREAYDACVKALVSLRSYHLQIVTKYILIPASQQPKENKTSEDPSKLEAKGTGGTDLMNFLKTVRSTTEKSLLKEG
Reported endpoint: IC50 (nM)
One number for each entry, in nM.

Req: Please give measured IC50 of the following entry: C#Cc1ccc(NC(=O)OC[C@]23CN(S(=O)(=O)c4ccc(C(C)(C)C)cc4CC)C[C@H]2C[C@H]2C[C@@H]3C2(C)C)cc1
Resp: 11
